System: E. coli D22
PROCEDURE_TEXT: microbe, parasite or virus in culture
Format: cell-based
REPORTED_CONDITIONS: Escherichia coli, D22, read-out: MIC E. coli D22
PROPERTY_NAME: MIC

Form field MIC, entry CS(=O)(=O)NC(C(=O)N[C@H]1Cc2cccc(C(=O)O)c2OB1O)c1ccc(P(=O)(O)O)cc1 (stereo partly drawn) [Example 59] : > 128 µg/mL

// CCN1CCN(C(=O)N[C@H](C(=O)N[C@H]2Cc3ccc(F)c(C(=O)O)c3OB2O)c2ccc(P(=O)(O)O)cc2)C(=O)C1=O (single isomer, unassigned) [Example 9] : MIC value = 32 to 64 µg/mL

MIC recorded for this compound, CCN1CCN(C(=O)N[C@@H](C(=O)N[C@H]2Cc3cccc(C(=O)O)c3OB2O)c2ccc(P(=O)(O)O)c(F)c2)C(=O)C1=O (single isomer, unassigned) [Example 7] , is 2 to 4 µg/mL

Summary for this compound, N[C@@H](C(=O)N[C@H]1Cc2cccc(C(=O)O)c2OB1O)c1ccc(P(=O)(O)O)cc1 (single isomer, unassigned) [Example 171] : MIC is > 128 µg/mL

Note to self: MIC recorded for NC(C(=O)N[C@H]1Cc2ccc(F)c(C(=O)O)c2OB1O)c1ccc(P(=O)(O)O)cc1 (stereo partly drawn) [Example 14] was > 128 µg/mL

The recorded MIC for CC(=O)NC(C(=O)N[C@H]1Cc2cccc(C(=O)O)c2OB1O)c1ccc(P(=O)(O)O)cc1 (stereo partly drawn) [Example 26] is 32 to 64 µg/mL

* * *

EXPERIMENTAL_TARGET: A. baumannii PBP1a (Acinetobacter baumannii)
Sequence (A0ABX6CK30 1-851): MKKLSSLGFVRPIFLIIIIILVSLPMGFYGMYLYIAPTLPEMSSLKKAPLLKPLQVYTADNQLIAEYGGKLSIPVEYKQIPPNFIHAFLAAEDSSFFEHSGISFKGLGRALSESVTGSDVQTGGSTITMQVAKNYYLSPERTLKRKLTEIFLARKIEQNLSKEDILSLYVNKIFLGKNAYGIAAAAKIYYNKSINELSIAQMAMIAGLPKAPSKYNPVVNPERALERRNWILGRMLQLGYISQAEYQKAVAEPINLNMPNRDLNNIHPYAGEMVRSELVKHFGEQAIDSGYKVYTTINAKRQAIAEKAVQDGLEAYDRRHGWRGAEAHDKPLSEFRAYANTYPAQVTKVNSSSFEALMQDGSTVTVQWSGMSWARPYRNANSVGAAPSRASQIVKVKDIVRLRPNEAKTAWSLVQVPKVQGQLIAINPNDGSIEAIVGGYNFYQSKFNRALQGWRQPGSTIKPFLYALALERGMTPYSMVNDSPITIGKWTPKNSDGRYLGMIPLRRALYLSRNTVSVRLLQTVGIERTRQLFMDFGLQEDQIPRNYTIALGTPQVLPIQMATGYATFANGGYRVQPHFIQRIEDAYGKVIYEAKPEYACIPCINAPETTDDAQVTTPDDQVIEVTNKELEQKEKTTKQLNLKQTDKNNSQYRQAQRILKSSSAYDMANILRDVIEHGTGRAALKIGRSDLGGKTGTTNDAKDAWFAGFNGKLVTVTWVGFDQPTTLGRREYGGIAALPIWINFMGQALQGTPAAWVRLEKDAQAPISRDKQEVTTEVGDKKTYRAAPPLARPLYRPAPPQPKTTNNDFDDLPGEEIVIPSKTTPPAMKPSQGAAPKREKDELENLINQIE
PROCEDURE_TEXT: Bocillin-FL competition binding via gel filtration, A. baumannii PBP1a
REPORTED_CONDITIONS: competition binding assay using Bocillin-FL via gel filtration; read-out: A. baumannii PBP1a Potency
pEC50: −log10 of the molar value.
PROPERTY_NAME: pEC50

Measured pEC50 (A. baumannii PBP1a (Acinetobacter baumannii)), entry O=C(O)c1c(F)ccc2c1OB(O)[C@@H](NC(=O)[C@H](NC(=O)N1CCN(C3CCN(C(=O)c4cc(O)c(F)c(O)c4F)CC3)C1=O)c1cc(F)c(O)c(O)c1Cl)C2 (single isomer, unassigned) : > 5.00

Known value: A. baumannii PBP1a (Acinetobacter baumannii) pEC50 of the molecule Nc1cc(CN2CCC(N3CCN(C(=O)N[C@@H](C(=O)N[C@H]4Cc5ccc(F)c(C(=O)O)c5OB4O)c4cc(F)c(O)c(O)c4Cl)C3=O)CC2)ccn1 equals > 5.00

Bench note, A. baumannii PBP1a (Acinetobacter baumannii): O=C(NCCCN1CCN(C(=O)N[C@@H](C(=O)N[C@H]2Cc3ccc(F)c(C(=O)O)c3OB2O)c2cc(F)c(O)c(O)c2Cl)C(=O)C1=O)c1cccc(O)c1Cl , pEC50 reads > 5.00

Case O=C(NCCCS(=O)(=O)N1CCN(C(=O)NC(C(=O)N[C@H]2Cc3ccc(F)c(C(=O)O)c3OB2O)c2cc(F)c(O)c(O)c2Cl)C1=O)c1ccncc1 (stereo partly shown) , A. baumannii PBP1a (Acinetobacter baumannii), pEC50 recorded as 4.30 to 5.00

Item: CN(CCN1CCN(C(=O)N[C@@H](C(=O)N[C@H]2Cc3ccc(F)c(C(=O)O)c3OB2O)c2cc(F)c(O)c(O)c2Cl)C(=O)C1=O)Cc1ccc(N)nc1 | System: A. baumannii PBP1a (Acinetobacter baumannii) | pEC50: 4.30 to 5.00

Entry O=C(O)c1c(F)ccc2c1OB(O)[C@@H](NC(=O)[C@H](NC(=O)N1CCN(C3CCN(C(=O)c4cc(O)c(O)c(Cl)c4)CC3)C1=O)c1ccc(P(=O)(O)O)cc1)C2 under A. baumannii PBP1a (Acinetobacter baumannii) had pEC50 of > 5.00

Measured pEC50 (A. baumannii PBP1a (Acinetobacter baumannii)), entry O=C(NCCCN1CCN(C(=O)NC(C(=O)N[C@H]2Cc3ccc(F)c(C(=O)O)c3OB2O)c2cc(F)c(O)c(O)c2Cl)C(=O)C1=O)c1ccccc1 (stereo partly shown) : 4.30 to 5.00

Where do these numbers come from? They come from patent US20240270762A1.
